Tested on: HCT-15 colon
Assay: NCI tumour cell line growth inhibition, 48 h
recordedEndpoint: TGI

Request: So what's the measured TGI for this one? `CC(C)CCC[C@@H](C)[C@H]1CC[C@H]2[C@@H]3CC=C4C[C@@H](OC(=O)c5cccc6c(=O)c7ccccc7[nH]c56)CC[C@]4(C)[C@H]3CC[C@]12C`
Response: > 75 µM

Request: Which value of TGI has been reported for `CC#C[C@@]1(O)CCCC[C@@H]1O` in the records?
Response: > 100 µM

Request: Which TGI value belongs to COc1ccc(C2OC(=O)c3c2ccc2ccccc32)c(C)c1 (stereo unspecified) ?
Response: 19.9 µM

Request: Given the entry `CN=C(Nn1cnnc1)OC` , report its measured TGI.
Response: > 100 µM

Request: Quick one: TGI for `NCCCCCS(=O)(=O)O` ?
Response: > 100 µM

Request: Can you share its TGI? I mean this molecule: `COc1ccc(-c2ccc(/C=C/C(=O)NO)cc2)cc1`
Response: 58.7 µM

Request: I have this molecule here, `CCOC(=O)c1cc2c(OC(C)=O)ccc(OC(C)=O)c2s1` , and I need its recorded TGI.
Response: 3.34 µM

Request: Data request, read-out TGI, for `COc1ccc(N2CCN(C(=O)c3ccccc3Nc3ccnc(C(F)(F)F)c3)CC2)cc1`
Response: > 100 µM

Request: Give the measured TGI of C/C(=N\NC(N)=O)C(CN1CCCCC1)C(c1ccccc1)c1c(O)c2ccccc2oc1=O (stereo unspecified) .
Response: > 100 µM

Request: Could you share which TGI value was measured for `CC1=NNC(=NCCN(C)C)C/C1=C/c1ccccc1Cl` ?
Response: > 100 µM

Request: Which TGI reading was recorded for the molecule `S=c1nc(-c2nc(=S)[nH]c3c2CCCCCCCCCC3)c2c([nH]1)CCCCCCCCCC2` ?
Response: > 100 µM

Request: Recorded TGI for `COc1cccc(NC(=O)CSc2nnc(-c3ccc(N=Cc4ccc(Cl)cc4)cc3)o2)c1` , please?
Response: 33.8 µM

Request: Sample `CC[C@@]1(O)C(=O)NCc2c1cc1n(c2=O)Cc2cc3ccccc3nc2-1` — what was its TGI?
Response: > 100 µM

Request: What measured TGI goes with `Cc1cc(C)cc(-n2c3nc(=O)n(C)c(=O)c-3nc3ccccc32)c1` ?
Response: 73 µM

Request: Give the measured TGI of `O=C(/C=C/c1ccc(C(F)(F)F)cc1)c1ccc(Nc2nc(NCCO)nc(NCCO)n2)cc1` .
Response: 11.3 µM

Request: Could you share which TGI value was measured for O=C(O)C(CCc1ccccn1)c1ccccc1 (stereo unspecified) ?
Response: > 100 µM

* * *

Test system: SK-MEL-5 melanoma
Assay: NCI tumour cell line growth inhibition, 48 h; in the data active = GI50 below about 0.43 µM; inactive = the rest
Please reply with one of these outcomes: true (active), false (inactive)

Request: Hey, what did the test say about `COc1ccc(-c2oc(=O)ccc2C#Cc2cc(OC)c(OC)c(OC)c2)cc1O` ?
Response: false

Request: Check the results log: what was the call for `CN(C)CCCNc1nn2c(=O)c3ccccc3nc2c2ccccc12` ?
Response: false

Request: Just curious, what result did COc1ccc(SC2c3cc(OC)c(OC)cc3Oc3nc(N)c(C#N)c(N)c32)cc1 (stereo not drawn) get here?
Response: false

Request: Each compound tested received a call. Report the one for `O=C1c2[nH]cc(CN3CCNCC3)c2C(=O)c2c1c(O)c1ccccc1c2O` .
Response: false

Request: Record lookup: outcome of this test for `Nc1ncnc2c1c(C(F)(F)F)cn2[C@@H]1O[C@H](CO)[C@@H](O)[C@H]1O` ?
Response: true

Request: Called result for `CC1(C)N=C(N)N=C(N)N1c1cccc(C#N)c1`
Response: false

Request: Entry CC(CN=C(CC(=O)c1ccc(Br)cc1)c1ccccc1)N=C(CC(=O)c1ccc(Br)cc1)c1ccccc1 (stereo not drawn) : call = ?
Response: false

Request: Each compound tested received a call. Report the one for COc1ccc2c(c1)CCC1C2CC[C@@]2(C)C1CC[C@@]2(O)CNC(=O)/C=C/c1ccc(O)c(OC)c1 (stereo partly drawn) .
Response: false

Request: Called result for `CCCCCCCCCCCCn1c(C)nc2ccccc21`
Response: false

Request: Please state the recorded outcome for this compound: `O=C(c1ccccc1Nc1ccnc(C(F)(F)F)c1)N1CCN(c2cccc(Cl)c2)CC1`
Response: false

Request: Assay result, entry C#CCN1C(=O)/C(=c2\sc3n(c2=O)C2C(NN=3)N(CC)C(=O)N2CC)c2ccccc21 (stereo not drawn) — outcome?
Response: false

Request: Could you please tell me the result logged for CC(=O)OCC1OC(OC2C(COC(C)=O)OC(OCCC[S-])C(OC(C)=O)C2OC(C)=O)C(OC(C)=O)C(OC(C)=O)C1OC(C)=O.[Au+].c1ccc(CN2[CH-]N(Cc3ccccc3)C(c3ccccc3)=C2c2ccccc2)cc1 (stereo not drawn) in this assay?
Response: false

Request: Recorded test call requested for `CC(=O)Oc1ccc(OC(C)=O)c2ccccc12`
Response: false

Request: Which result was noted for this compound in the test: `CN(C)c1ccc(/C=C2\C[C@H]3[C@@H]4CC=C5C[C@@H](N6CCCC6)CC[C@]5(C)[C@H]4CC[C@]3(C)[C@H]2O)cc1`
Response: false

Request: Which outcome was entered for the compound `COc1cc(-c2cc(-c3ccc(N(C)C)cc3)nc(N3CCOCC3)c2C#N)cc(OC)c1OC` in this test?
Response: true

Request: # fetch the recorded call for `COc1ccc(N2CCN(C(=O)c3ccccc3Nc3ccnc(C(F)(F)F)c3)CC2)cc1` here
Response: false

Request: Please state the recorded outcome for this compound: `Cl.[Pt].[c-]1ccccc1-c1ccccn1.c1ccc(P(c2ccccc2)C([PH+](c2ccccc2)c2ccccc2)[PH+](c2ccccc2)c2ccccc2)cc1`
Response: false

Request: Fill in: this test's call for `N#Cc1c(NC(=O)c2ccccc2)sc2c1CCC(=O)C2` is ___
Response: false
